# assayedTarget: SAMHD1 HD domain R366C (UniProt Q9Y3Z3 114-626, R366C)
# Sequence (Q9Y3Z3 114-626 R366C): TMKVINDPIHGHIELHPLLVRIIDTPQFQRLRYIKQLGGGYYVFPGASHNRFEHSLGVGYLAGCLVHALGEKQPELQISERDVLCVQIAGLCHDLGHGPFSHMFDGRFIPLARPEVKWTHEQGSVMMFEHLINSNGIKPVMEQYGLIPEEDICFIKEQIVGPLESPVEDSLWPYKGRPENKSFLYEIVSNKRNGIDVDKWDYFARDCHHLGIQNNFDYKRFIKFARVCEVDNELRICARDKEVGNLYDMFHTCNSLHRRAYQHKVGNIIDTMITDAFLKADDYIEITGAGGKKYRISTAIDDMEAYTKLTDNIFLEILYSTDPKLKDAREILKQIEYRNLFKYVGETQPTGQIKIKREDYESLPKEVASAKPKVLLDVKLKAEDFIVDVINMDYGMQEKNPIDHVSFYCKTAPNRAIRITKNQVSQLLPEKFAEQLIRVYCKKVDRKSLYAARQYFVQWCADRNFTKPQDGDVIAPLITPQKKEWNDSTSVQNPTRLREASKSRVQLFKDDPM
# experimentalDetails: fluorescence polarization; 50 mM Tris-HCl pH 8.0, 50 mM KCl, 1 mM EDTA; 50 nM labeled oligonucleotide; temperature not stated
# conditionDetails: protein: recombinant; chain copies: 2; label: 5'-6-carboxyfluorescein; single strand
List of Kd values.
Kindly answer with a numeric value in µM, unit omitted.

{"columns": ["binder", "Kd (µM)"],
 "data": [
  ["CGCCT (ssDNA, * between all nucleotides (probably phosphorothioate; not defined in the material)) [6FAM-deoxy(C*G*C*C*T)]", 0.689]
]}

Read the next record carefully.
Output measured Kd for this item: CGCCU (ssRNA, * between all nucleotides (probably phosphorothioate; not defined in the material)) [6FAM-ribo(C*G*C*C*U)]
1.45
